Tested on: Plasmodium berghei
assaySummary: Screen against P. berghei liver stage (PbLuc), transformed with Luciferase, at 10uM
Type: functional, HepG2
conditionParameters: tested at 10 uM
Among all 69,000 compounds or so, about 8,600 (12%) showed an effect of 50% or more. The entries come from a sample that favours strong results as a whole.
Quick reference: INHIBITION of the listed items.
Quick reminder: number only, in %, skip the unit.

# molecule, recordedNumber
records = [
    ("CC(C)NC(=O)[C@H]1CCS(=O)(=O)[C@@H]2CN(c3ncccn3)C[C@H]12", 0.164),
]

The recorded INHIBITION for entry N#Cc1c(F)cccc1N1CCC(NS(=O)(=O)c2cccs2)CC1 equals 24

The recorded INHIBITION for entry CN(C)C(=O)[C@H]1CCS(=O)(=O)[C@@H]2CN(c3ncc(F)cn3)C[C@H]12 equals 54.8

The recorded INHIBITION for entry COc1ccc(OC)c(-c2nc(CN(C)Cc3nonc3C)c(C)o2)c1 equals -28

The recorded INHIBITION for entry COC(=O)CN1CCCn2nc(CCC(=O)N3CCCC3)cc2C1 equals 32.4

====

Tested on: Plasmodium berghei
assaySummary: Screen against P. berghei liver stage (PbLuc), transformed with Luciferase, at 10uM
Type: functional, HepG2
conditionParameters: tested at 10 uM
Hit rate of the full screen: of about 69,000 compounds, about 8,600 (12%) showed an effect of 50% or more. For the sample, strong results were picked, then their nearest neighbours and some compounds at random.
Quick reference: INHIBITION of the listed items.
Quick reminder: number only, in %, skip the unit.

Check out these entries, answers already filled in.
# molecule, INHIBITION, %
data = [
    ("CN(Cc1cnn(C)c1)C(=O)c1ccc(Cl)c(N2CCNC2=O)c1", 18.4),
    ("CC(O)c1cccc(N2CCC3(CC2)Nc2ccccc2NC3=O)n1 (stereo unspecified)", 0.705),
    ("Cc1cncc(C(=O)N2C[C@H]3CCC[C@@]3(COc3ccccn3)C2)c1", 24.5),
    ("CCCc1nc(NCCCOC)c2c(n1)c(C)nn2CC", 29.18),
    ("O=C(CCn1c(C(F)(F)F)cc2cccnc21)NC1CCCC1", 8.72),
]

Consider the additional molecule presented here.
The recorded INHIBITION for entry Fc1ccc(CNCCn2cccn2)c(Cl)c1 equals 64.1

====

System: Plasmodium berghei
assaySummary: Screen against P. berghei liver stage (PbLuc), transformed with Luciferase, at 10uM
Type: functional, HepG2
conditionParameters: tested at 10 uM
About 8,600 (12%) of roughly 69,000 compounds showed an effect of 50% or more. Shown is part of a subset that was picked to be rich in strong results.
Quick reference: INHIBITION of the listed items.
Quick reminder: number only, in %, skip the unit.

Check out these entries, answers already filled in.
# compound, INHIBITION (%)
records = [
    ("CC(C)COc1cccc(-c2nc3c([nH]2)CCNC3)c1", 41.5),
    ("CCC(C(=O)Nc1ccc2nc(C)oc2c1)N1CCCC1=O (stereo unspecified)", 71.2),
    ("CC(C)NC(=O)Nc1ccc(-c2nc3c([nH]2)CCNC3)cc1", -100),
    ("Cc1occc1CNC(=O)Nc1ccc2nc(N3CCOCC3)oc2c1", 25.8),
]

The observed INHIBITION for COc1ncc(CN2CCC3(CCCN(CC4CCCCC4)C3)C2)cn1 (stereo unspecified) when tested with Plasmodium berghei stands at 6.94

The observed INHIBITION for CCC(C(=O)Nc1ccc2cn(CC)nc2c1)N1CCCC1=O (stereo unspecified) when tested with Plasmodium berghei stands at 54.5

All values here come from ChEMBL document CHEMBL4513216.
